Data origin: ChEMBL document CHEMBL1150264

testTarget: Melanocyte-stimulating hormone receptor (Homo sapiens)
Sequence (Q01726 whole entry): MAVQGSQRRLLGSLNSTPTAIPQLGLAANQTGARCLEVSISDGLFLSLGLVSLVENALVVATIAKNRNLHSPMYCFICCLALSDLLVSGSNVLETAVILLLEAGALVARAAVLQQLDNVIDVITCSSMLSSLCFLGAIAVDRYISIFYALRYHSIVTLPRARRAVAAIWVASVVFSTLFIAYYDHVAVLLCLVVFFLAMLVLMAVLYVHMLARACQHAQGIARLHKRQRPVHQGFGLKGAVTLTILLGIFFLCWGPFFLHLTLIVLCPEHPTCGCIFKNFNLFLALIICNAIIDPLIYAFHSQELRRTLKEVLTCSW
procedureDetails: Displacement of [125I]-[Nle4, D-Phe7]alpha-MSH from human melanocortin 1 receptor expressed in HEK293 cells
Type: cell-based
outcomeMeasure: IC50

INSERT INTO measurements (cpdsmiles, result) VALUES
  ('N=C(N)NCCC[C@@H]1NC(=O)[C@@H](Cc2ccccc2)NC(=O)C2(Cc3ccccc3C2)NC(=O)c2cc([N+](=O)[O-])ccc2SC[C@@H](C(N)=O)NC(=O)[C@H](Cc2c[nH]c3ccccc23)NC1=O', '> 1000 nM');

Response field IC50 (Melanocyte-stimulating hormone receptor (Homo sapiens)) for item NC(=O)[C@@H]1CSc2ccc([N+](=O)[O-])cc2C(=O)N[C@@H](Cc2cnc[nH]2)C(=O)N[C@H](Cc2ccc3ccccc3c2)C(=O)N[C@@H](CCCN=C(N)N)C(=O)N[C@@H](Cc2c[nH]c3ccccc23)C(=O)N1 : 760 nM

Response field IC50 (Melanocyte-stimulating hormone receptor (Homo sapiens)) for item N=C(N)NCCC[C@@H]1NC(=O)[C@@H](Cc2ccccc2)NC(=O)[C@@H]2CCCN2C(=O)c2cc([N+](=O)[O-])ccc2SC[C@@H](C(N)=O)NC(=O)[C@H](Cc2c[nH]c3ccccc23)NC1=O : > 1000 nM

Response field IC50 (Melanocyte-stimulating hormone receptor (Homo sapiens)) for item N=C(N)NCCC[C@@H]1NC(=O)[C@@H](Cc2ccccc2)NC(=O)[C@H](Cc2cnc[nH]2)NC(=O)c2cc([N+](=O)[O-])ccc2SC[C@@H](C(N)=O)NC(=O)[C@H](Cc2ccccc2)NC1=O : > 1000 nM

Response field IC50 (Melanocyte-stimulating hormone receptor (Homo sapiens)) for item N=C(N)NCCC[C@@H]1NC(=O)[C@@H](Cc2ccccc2)NC(=O)[C@H](CC2CCCCC2)NC(=O)c2cc([N+](=O)[O-])ccc2SC[C@@H](C(N)=O)NC(=O)[C@H](Cc2c[nH]c3ccccc23)NC1=O : > 2000 nM

---

testTarget: Melanocortin receptor 4 (Homo sapiens)
Sequence (P32245 whole entry): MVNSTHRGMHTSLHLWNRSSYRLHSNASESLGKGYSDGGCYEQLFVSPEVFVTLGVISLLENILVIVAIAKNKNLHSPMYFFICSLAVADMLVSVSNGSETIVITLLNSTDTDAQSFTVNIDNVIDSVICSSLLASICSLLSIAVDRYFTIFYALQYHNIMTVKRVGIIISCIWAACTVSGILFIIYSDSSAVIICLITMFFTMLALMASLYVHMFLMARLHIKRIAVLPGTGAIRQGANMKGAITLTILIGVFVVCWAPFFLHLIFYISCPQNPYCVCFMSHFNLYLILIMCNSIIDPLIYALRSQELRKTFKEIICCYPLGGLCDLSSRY
procedureDetails: Agonist activity at human melanocortin 4 receptor expressed in HEK293 cells assessed as cAMP accumulation at 10 uM
Type: functional, cell-based
The source made the active and inactive calls. The calls are words filed in the database; no cut-off is given here.
outcomeMeasure: Activity

Observe how each entry below is paired with its result.
INSERT INTO assay_data (cpdsmiles, testtarget, outcomemeasure, result) VALUES
  ('N=C(N)NCCC[C@@H]1NC(=O)[C@H](Cc2ccc(N)cc2)NC(=O)[C@H](Cc2cnc[nH]2)NC(=O)c2cc([N+](=O)[O-])ccc2SC[C@@H](C(N)=O)NC(=O)[C@H](Cc2c[nH]c3ccccc23)NC1=O', 'Melanocortin receptor 4 (Homo sapiens)', 'Activity', 'inactive'),
  ('N=C(N)NCCC[C@@H]1NC(=O)[C@@H](Cc2ccccc2)NC(=O)[C@H](Cc2cnc[nH]2)NC(=O)c2cc([N+](=O)[O-])ccc2SC[C@@H](C(N)=O)NC(=O)[C@@H](Cc2ccc3ccccc3c2)NC1=O', 'Melanocortin receptor 4 (Homo sapiens)', 'Activity', 'inactive'),
  ('N=C(N)NCCC[C@@H]1NC(=O)[C@@H](Cc2ccccc2)NC(=O)C2(Cc3ccccc3C2)NC(=O)c2cc([N+](=O)[O-])ccc2SC[C@@H](C(N)=O)NC(=O)[C@H](Cc2c[nH]c3ccccc23)NC1=O', 'Melanocortin receptor 4 (Homo sapiens)', 'Activity', 'inactive'),
  ('NCCC[C@@H]1NC(=O)[C@@H](Cc2ccccc2)NC(=O)[C@H](Cc2cnc[nH]2)NC(=O)c2cc([N+](=O)[O-])ccc2SC[C@@H](C(N)=O)NC(=O)[C@H](Cc2c[nH]c3ccccc23)NC1=O', 'Melanocortin receptor 4 (Homo sapiens)', 'Activity', 'inactive');

Could you now look at the following compound, please?
Response field Activity (Melanocortin receptor 4 (Homo sapiens)) for item N=C(N)NCCC[C@@H]1NC(=O)[C@@H](Cc2ccccc2)NC(=O)[C@H](Cc2cnc[nH]2)NC(=O)c2cc([N+](=O)[O-])ccc2SC[C@@H](C(N)=O)NC(=O)[C@H](Cc2ccc3ccccc3c2)NC1=O : inactive

---

testTarget: UniProt:P41968
procedureDetails: Displacement of [125I]-[Nle4, D-Phe7]alpha-MSH from human melanocortin 3 receptor expressed in HEK293 cells at 10 uM
Assay type: cell-based
Active and inactive are the calls of the source. No cut-off for these calls is given here.
outcomeMeasure: Activity

INSERT INTO measurements (cpdsmiles, result) VALUES
  ('N=C(N)NCCC[C@@H]1NC(=O)[C@@H](Cc2ccccc2)NC(=O)[C@H]2C[C@@H](O)CN2C(=O)c2cc([N+](=O)[O-])ccc2SC[C@@H](C(N)=O)NC(=O)[C@H](Cc2c[nH]c3ccccc23)NC1=O', 'inactive'),
  ('N=C(N)NCCC[C@@H]1NC(=O)[C@@H](Cc2ccccc2)NC(=O)[C@H]2CCCN2C(=O)c2cc([N+](=O)[O-])ccc2SC[C@@H](C(N)=O)NC(=O)[C@H](Cc2c[nH]c3ccccc23)NC1=O', 'inactive'),
  ('NCCC[C@@H]1NC(=O)[C@@H](Cc2ccccc2)NC(=O)[C@H](Cc2cnc[nH]2)NC(=O)c2cc([N+](=O)[O-])ccc2SC[C@@H](C(N)=O)NC(=O)[C@H](Cc2c[nH]c3ccccc23)NC1=O', 'inactive');

---

testTarget: Melanocortin receptor 5 (Homo sapiens)
Sequence (P33032 whole entry): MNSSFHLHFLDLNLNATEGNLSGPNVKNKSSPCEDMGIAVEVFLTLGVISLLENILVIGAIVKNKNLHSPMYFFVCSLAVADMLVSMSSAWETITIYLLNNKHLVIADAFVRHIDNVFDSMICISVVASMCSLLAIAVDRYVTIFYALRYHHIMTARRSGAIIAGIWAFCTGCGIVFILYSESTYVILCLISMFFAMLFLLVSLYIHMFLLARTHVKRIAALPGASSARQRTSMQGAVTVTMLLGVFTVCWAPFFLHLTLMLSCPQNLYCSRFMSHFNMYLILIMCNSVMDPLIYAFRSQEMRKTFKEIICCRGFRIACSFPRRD
procedureDetails: Displacement of [125I]-[Nle4, D-Phe7]alpha-MSH from human melanocortin 5 receptor expressed in HEK293 cells at 10 uM
Type: cell-based
The source made the active and inactive calls. No cut-off for these calls is given here.
outcomeMeasure: Activity

INSERT INTO assay_data (cpdsmiles, testtarget, outcomemeasure, result) VALUES
  ('N=C(N)NCCC[C@@H]1NC(=O)[C@H](CCCNC(N)=O)NC(=O)[C@H](Cc2cnc[nH]2)NC(=O)c2cc([N+](=O)[O-])ccc2SC[C@@H](C(N)=O)NC(=O)[C@H](Cc2c[nH]c3ccccc23)NC1=O', 'Melanocortin receptor 5 (Homo sapiens)', 'Activity', 'inactive'),
  ('NCCC[C@@H]1NC(=O)[C@@H](Cc2ccccc2)NC(=O)[C@H](Cc2cnc[nH]2)NC(=O)c2cc([N+](=O)[O-])ccc2SC[C@@H](C(N)=O)NC(=O)[C@H](Cc2c[nH]c3ccccc23)NC1=O', 'Melanocortin receptor 5 (Homo sapiens)', 'Activity', 'inactive'),
  ('N=C(N)NCCC[C@@H]1NC(=O)[C@@H](Cc2ccccc2)NC(=O)[C@H](Cc2cnc[nH]2)NC(=O)c2cc([N+](=O)[O-])ccc2SC[C@@H](C(N)=O)NC(=O)[C@H](Cc2ccccc2)NC1=O', 'Melanocortin receptor 5 (Homo sapiens)', 'Activity', 'inactive');

---

testTarget: Melanocortin receptor 3 (Homo sapiens)
Sequence (P41968 whole entry): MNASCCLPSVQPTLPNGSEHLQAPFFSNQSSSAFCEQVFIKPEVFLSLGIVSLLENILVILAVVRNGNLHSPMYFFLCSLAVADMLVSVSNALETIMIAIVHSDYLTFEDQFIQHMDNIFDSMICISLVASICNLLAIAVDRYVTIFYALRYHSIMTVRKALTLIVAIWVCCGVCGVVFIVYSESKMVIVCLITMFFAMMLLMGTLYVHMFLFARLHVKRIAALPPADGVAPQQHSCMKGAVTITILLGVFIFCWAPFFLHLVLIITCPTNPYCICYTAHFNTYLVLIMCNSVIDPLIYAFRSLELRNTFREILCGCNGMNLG
procedureDetails: Agonist activity at human melanocortin 3 receptor expressed in HEK293 cells assessed as cAMP accumulation at 10 uM realtive to MT2
Assay type: functional, cell-based
outcomeMeasure: Activity

INSERT INTO results (cpdsmiles, result) VALUES
  ('N=C(N)NCCC[C@@H]1NC(=O)[C@@H](Cc2ccccc2)NC(=O)[C@H](CC2CCCCC2)NC(=O)c2cc([N+](=O)[O-])ccc2SC[C@@H](C(N)=O)NC(=O)[C@H](Cc2c[nH]c3ccccc23)NC1=O', '> 100%');

// recorded Activity for N=C(N)NCCC[C@@H]1NC(=O)[C@@H](Cc2ccccc2)NC(=O)[C@@H]2CCCN2C(=O)c2cc([N+](=O)[O-])ccc2SC[C@@H](C(N)=O)NC(=O)[C@H](Cc2c[nH]c3ccccc23)NC1=O : > 100%

// recorded Activity for N=C(N)NCCC[C@@H]1NC(=O)[C@@H](Cc2ccccc2)NC(=O)[C@H](Cc2cnc[nH]2)NC(=O)c2cc([N+](=O)[O-])ccc2SC[C@@H](C(N)=O)NC(=O)[C@H](Cc2ccc3ccccc3c2)NC1=O : > 100%

---

testTarget: UniProtKB P41968
procedureDetails: Displacement of [125I]-[Nle4, D-Phe7]alpha-MSH from human melanocortin 3 receptor expressed in HEK293 cells
Type: cell-based
This section presents compounds with their documented IC50 values.

INSERT INTO assay_data (cpdsmiles, outcomemeasure, result) VALUES
  ('NCCCC[C@@H]1NC(=O)[C@@H](Cc2ccccc2)NC(=O)[C@H](Cc2cnc[nH]2)NC(=O)c2cc([N+](=O)[O-])ccc2SC[C@@H](C(N)=O)NC(=O)[C@H](Cc2c[nH]c3ccccc23)NC1=O', 'IC50', '> 1 µM'),
  ('NC(=O)[C@@H]1CSc2ccc([N+](=O)[O-])cc2C(=O)N[C@@H](Cc2cnc[nH]2)C(=O)N[C@H](Cc2ccccc2)C(=O)N[C@@H](CCCN=C(N)N)C(=O)N[C@H](Cc2ccc3ccccc3c2)C(=O)N1', 'IC50', '> 8 µM'),
  ('N=C(N)NCCC[C@H]1NC(=O)[C@@H](Cc2ccccc2)NC(=O)[C@H](Cc2cnc[nH]2)NC(=O)c2cc([N+](=O)[O-])ccc2SC[C@@H](C(N)=O)NC(=O)[C@H](Cc2c[nH]c3ccccc23)NC1=O', 'IC50', '> 10 µM');

Could you now look at the following compound, please?
// recorded IC50 for N=C(N)NCCC[C@@H]1NC(=O)[C@@H](Cc2ccccc2)NC(=O)[C@H](CC2CCCCC2)NC(=O)c2cc([N+](=O)[O-])ccc2SC[C@@H](C(N)=O)NC(=O)[C@H](Cc2c[nH]c3ccccc23)NC1=O : > 1 µM
